Reported IC50 is given for each of the following molecules.
Target: JAK2/JAK2 homdimeric complex (Homo sapiens (Human), UniProt O60674)
Sequence (O60674 whole entry): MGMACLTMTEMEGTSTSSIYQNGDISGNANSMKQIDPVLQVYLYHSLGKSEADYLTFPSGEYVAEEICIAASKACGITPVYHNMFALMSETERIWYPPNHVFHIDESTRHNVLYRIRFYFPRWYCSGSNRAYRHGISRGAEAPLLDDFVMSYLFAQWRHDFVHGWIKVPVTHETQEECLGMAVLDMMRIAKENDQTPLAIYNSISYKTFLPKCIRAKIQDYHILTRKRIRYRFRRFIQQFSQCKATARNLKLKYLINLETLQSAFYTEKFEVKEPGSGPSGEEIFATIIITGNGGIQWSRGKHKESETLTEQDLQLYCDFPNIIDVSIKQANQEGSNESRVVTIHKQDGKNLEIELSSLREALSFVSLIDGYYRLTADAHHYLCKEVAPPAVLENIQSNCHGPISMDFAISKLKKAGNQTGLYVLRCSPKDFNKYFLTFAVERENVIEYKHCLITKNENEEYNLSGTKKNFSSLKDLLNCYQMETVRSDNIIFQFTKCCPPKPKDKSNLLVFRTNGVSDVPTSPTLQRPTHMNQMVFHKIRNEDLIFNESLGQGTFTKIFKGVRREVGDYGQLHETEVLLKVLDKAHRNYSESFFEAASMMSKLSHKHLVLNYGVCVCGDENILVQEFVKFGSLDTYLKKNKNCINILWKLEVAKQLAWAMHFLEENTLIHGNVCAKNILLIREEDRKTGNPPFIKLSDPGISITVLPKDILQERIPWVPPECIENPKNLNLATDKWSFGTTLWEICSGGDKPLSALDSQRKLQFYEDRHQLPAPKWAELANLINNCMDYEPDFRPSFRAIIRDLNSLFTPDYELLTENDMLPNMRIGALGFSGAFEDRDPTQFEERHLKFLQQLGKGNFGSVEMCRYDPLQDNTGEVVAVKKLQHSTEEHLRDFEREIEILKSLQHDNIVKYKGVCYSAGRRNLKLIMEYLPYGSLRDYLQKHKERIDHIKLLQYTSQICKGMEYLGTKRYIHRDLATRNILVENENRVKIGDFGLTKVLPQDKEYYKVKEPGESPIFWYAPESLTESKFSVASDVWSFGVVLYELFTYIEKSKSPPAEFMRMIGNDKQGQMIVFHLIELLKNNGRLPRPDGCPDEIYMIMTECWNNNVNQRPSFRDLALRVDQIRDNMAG
Sequence (P32927 17-897 partner): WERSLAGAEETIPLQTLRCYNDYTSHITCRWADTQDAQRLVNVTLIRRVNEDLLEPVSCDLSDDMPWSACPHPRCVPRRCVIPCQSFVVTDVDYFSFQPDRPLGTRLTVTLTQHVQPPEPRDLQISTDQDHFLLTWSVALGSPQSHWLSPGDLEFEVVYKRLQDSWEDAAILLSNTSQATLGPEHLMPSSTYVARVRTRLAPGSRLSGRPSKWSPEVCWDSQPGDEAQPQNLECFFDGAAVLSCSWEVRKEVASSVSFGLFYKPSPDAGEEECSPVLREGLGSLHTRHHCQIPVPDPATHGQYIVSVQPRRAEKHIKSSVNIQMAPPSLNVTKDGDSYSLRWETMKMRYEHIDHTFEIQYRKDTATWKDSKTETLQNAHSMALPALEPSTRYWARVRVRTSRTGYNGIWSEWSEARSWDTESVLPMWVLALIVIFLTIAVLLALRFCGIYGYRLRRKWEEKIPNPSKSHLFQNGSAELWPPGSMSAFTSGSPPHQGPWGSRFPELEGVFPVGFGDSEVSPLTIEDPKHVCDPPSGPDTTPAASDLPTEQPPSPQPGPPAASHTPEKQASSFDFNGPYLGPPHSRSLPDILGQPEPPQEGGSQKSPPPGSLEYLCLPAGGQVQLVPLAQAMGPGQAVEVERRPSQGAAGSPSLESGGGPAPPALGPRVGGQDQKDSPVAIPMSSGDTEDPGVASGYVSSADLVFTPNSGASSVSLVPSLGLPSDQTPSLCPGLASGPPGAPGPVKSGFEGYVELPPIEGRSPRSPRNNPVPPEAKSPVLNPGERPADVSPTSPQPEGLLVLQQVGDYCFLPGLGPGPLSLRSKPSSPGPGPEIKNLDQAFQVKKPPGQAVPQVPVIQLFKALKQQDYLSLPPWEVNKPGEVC
Test: GM-CSF Induced pSTAT5 in Human PBMC
Conditions: GM-CSF 5 ng/mL for 20 minutes, pSTAT5 by MSD, read-out: PBMC_GMCSF_pSTAT5 IC50

CNc1cc(Nc2cccn([C@H]3CC[C@H](OC)CC3)c2=O)nc2c(C(=O)N[C@@H]3CC[C@H]3O)cnn12 : > 50 µM
CNc1cc(Nc2cccn([C@@H]3CCC[C@H](OC)C3)c2=O)nc2c(C(=O)NCC(C)(C)CO)cnn12 : > 50 µM
CNc1cc(Nc2cccn([C@H]3CCCC[C@H]3O)c2=O)nc2c(C(=O)N[C@@H]3CC[C@H]3OC)cnn12 : > 50 µM
CNc1cc(Nc2cccn(-c3ccc(OC)cn3)c2=O)nc2c(C(=O)N[C@H]3C[C@H]3F)cnn12 : > 12.5 µM
CNc1cc(Nc2cccn(-c3cnc(C(=O)N(C)C)cn3)c2=O)nc2c(C(=O)N[C@H]3C[C@H]3F)cnn12 : > 50 µM

Now turn to the next molecule.
Entry under review: CNc1cc(Nc2cccnc2OC)nc2c(C(=O)N[C@H]3C[C@H]3F)cnn12 . Reported IC50?
> 50 µM

---

Reported pIC50 is given for each of the following molecules.
Biological target: JAK2/JAK2 homdimeric complex (Homo sapiens (Human), UniProt O60674)
Assay: GM-CSF Induced pSTAT5 in Human PBMC
Conditions: GM-CSF 5 ng/mL for 20 minutes, pSTAT5 by MSD, read-out: PBMC_GMCSF_pSTAT5 IC50
pIC50: −log10 of the molar value.

CNc1cc(Nc2cccn(-c3nc(C)co3)c2=O)nc2c(C(=O)N[C@@H]3CC[C@H]3O)cnn12 (stereo in doubt) [I-658] : < 4.30
CNc1cc(Nc2cccn([C@H]3CC[C@H](OC)CC3)c2=O)nc2c(C(=O)N[C@H]3CC[C@@H]3O)cnn12 [I-540] : < 4.90

Request - read-out pIC50 | tested on JAK2/JAK2 homdimeric complex (Homo sapiens (Human), UniProt O60674) | molecule CNc1cc(Nc2cccn(-c3ccon3)c2=O)nc2c(C(=O)NC3CCC3)cnn12 [I-158]
< 4.30

Request - read-out pIC50 | tested on JAK2/JAK2 homdimeric complex (Homo sapiens (Human), UniProt O60674) | molecule CNc1cc(Nc2cccc(N3CCOC3=O)n2)nc2c(C(=O)NC3CCC3)cnn12 [I-105]
< 4.90

Request - read-out pIC50 | tested on JAK2/JAK2 homdimeric complex (Homo sapiens (Human), UniProt O60674) | molecule [2H]C([2H])([2H])Oc1ncccc1Nc1cc(NC)n2ncc(C(=O)N[C@H]3CC[C@H]3O)c2n1 (stereo in doubt) [I-399]
< 4.90

Request - read-out pIC50 | tested on JAK2/JAK2 homdimeric complex (Homo sapiens (Human), UniProt O60674) | molecule CNc1cc(Nc2cccn([C@H]3CC[C@@H]3O)c2=O)nc2c(C(=O)N[C@@H]3C[C@@H]3F)cnn12 [I-916]
< 4.30

Request - read-out pIC50 | tested on JAK2/JAK2 homdimeric complex (Homo sapiens (Human), UniProt O60674) | molecule CNc1cc(Nc2cc(Cl)cn([C@@H]3CCCOC3)c2=O)nc2c(C(=O)N[C@@H]3C[C@@H]3F)cnn12 [I-773]
< 4.90

Request - read-out pIC50 | tested on JAK2/JAK2 homdimeric complex (Homo sapiens (Human), UniProt O60674) | molecule CNc1cc(-c2cn(C(C)C)c3ncccc23)nc2c(C(=O)NC3CC3)cnn12 [I-223]
< 4.90

---

Target: human TYK2 (JH2domain-pseudokinase) (Homo sapiens (Human))
Test: TYK2 JH2 Domain Binding Assay (KINOMEscan)
pKd: −log10 of the molar value.
METRIC NAME: pKd

Use these answered entries as a reference point.
CNc1cc(Nc2cccn(-c3ccccc3F)c2=O)nc2c(C(=O)N[C@H]3CC[C@@H]3O)cnn12 : > 9.70
CNc1cc(Nc2cccnc2OC(F)F)nc2c(C(=O)N[C@H]3C[C@H]3F)cnn12 : > 9.70

Entry under review: CNc1cc(Nc2cccn([C@H]3CCCOC3)c2=O)nc2c(C(=O)N[C@@H]3CC[C@@H]3O)cnn12 [I-804] . Reported pKd?
9.00 to 9.70

Entry under review: CNc1cc(Nc2cccn(C3CCN(C)CC3)c2=O)nc2c(C(=O)N[C@@H]3CC[C@@H]3O)cnn12 [I-690] . Reported pKd?
8.00 to 9.00

Entry under review: CNc1cc(-c2cn(C3CCOCC3)c3ncccc23)nc2c(C(=O)N[C@H]3CCC[C@]3(C)O)cnn12 [I-1222] . Reported pKd?
> 9.70

Entry under review: CNc1cc(Nc2cccc(N3CCCC3=O)n2)nc2c(C(=O)NC3CC3)cnn12 . Reported pKd?
> 9.70

Entry under review: CNc1cc(Nc2cccn(C(C)C)c2=O)nc2c(C(=O)N[C@@H]3COC[C@@H]3O)cnn12 . Reported pKd?
9.00 to 9.70

Entry under review: CNc1cc(Nc2cccn(-c3ccccn3)c2=O)nc2c(C(=O)N[C@H]3C[C@H]3F)cnn12 . Reported pKd?
> 9.70

Entry under review: CNc1cc(Nc2cccn([C@H]3CCCC[C@H]3OC)c2=O)nc2c(C(=O)NC3CC3)cnn12 . Reported pKd?
9.00 to 9.70

Entry under review: CNc1cc(Nc2cccc(N3CC4(CCO4)C3)n2)nc2c(C(=O)N[C@H]3CC[C@H]3O)cnn12 [I-758] . Reported pKd?
9.00 to 9.70

Entry under review: CCn1cc(Cl)cc(Nc2cc(NC)n3ncc(C(N)=O)c3n2)c1=O . Reported pKd?
> 9.70

Entry under review: CNc1cc(Nc2cccn([C@H]3CCN(C)C[C@@H]3F)c2=O)nc2c(C(=O)NC3CC3)cnn12 . Reported pKd?
> 9.70

Entry under review: CNc1cc(Nc2cccn(-c3ncc(C)s3)c2=O)nc2c(C(=O)NC3CC3)cnn12 . Reported pKd?
9.00 to 9.70

Entry under review: CNc1cc(Nc2cccc(N3CCC34COC4)n2)nc2c(C(=O)N[C@H]3C[C@H]3F)cnn12 . Reported pKd?
> 9.70

Entry under review: CNc1cc(Nc2cccnc2OC(C)C)nc2c(C(=O)NC3CCC3)cnn12 . Reported pKd?
> 9.70

Entry under review: CNC(=O)c1occc1Nc1cc(NC)n2ncc(C(=O)N[C@H]3CC[C@@H]3OC)c2n1 (stereo in doubt) [I-1111] . Reported pKd?
> 9.70

---

Biological target: human TYK2 (JH2domain-pseudokinase) (Homo sapiens (Human), UniProt P29597)
Sequence (P29597 556-888): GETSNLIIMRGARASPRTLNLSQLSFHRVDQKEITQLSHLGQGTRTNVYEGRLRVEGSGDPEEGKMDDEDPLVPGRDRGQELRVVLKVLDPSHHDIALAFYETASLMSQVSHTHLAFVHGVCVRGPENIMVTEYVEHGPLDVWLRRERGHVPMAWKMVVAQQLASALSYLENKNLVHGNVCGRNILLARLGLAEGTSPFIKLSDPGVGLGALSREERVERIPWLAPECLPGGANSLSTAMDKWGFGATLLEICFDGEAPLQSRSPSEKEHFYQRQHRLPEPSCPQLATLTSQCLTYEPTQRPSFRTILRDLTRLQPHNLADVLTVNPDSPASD
Experiment: TYK2 JH2 Domain Binding Assay (KINOMEscan)
Experimental: Binding constants for compounds of the present invention against the JH2 domain were determined by the following protocol for a KINOMEscan® assay (DiscoveRx). […] The TYK2 (JH2domain-pseudokinase) fusion protein was labeled with a chimeric double-stranded DNA tag containing the NFkB binding site (5′-[…]-3′) fused to an amplicon for qPCR readout, which was added directly to the expression extract (the final concentration of DNA-tag in the binding reaction is 0.1 nM). […]
Reported Kd is given for each of the following compounds.

CNc1cc(Nc2cccc(C3CCCCO3)n2)nc2c(C(=O)NCC3(CO)CC3)cnn12 (stereo not shown) [I-530] : 0.2 to 1 nM
CNc1cc(Nc2cccn(-c3ccnn3C)c2=O)nc2c(C(=O)NC3CC3)cnn12 [I-327] : 0.2 to 1 nM
CNc1cc(Nc2cc(F)cn([C@H]3CCCOC3)c2=O)nc2c(C(=O)NC3CC3)cnn12 [I-534] : 0.2 to 1 nM
CNc1cc(Nc2cc(Cl)cn(C3CCOCC3)c2=O)nc2c(C(=O)N[C@@H]3CC[C@@H]3O)cnn12 [I-713] : < 0.2 nM
CNc1cc(Nc2cccn([C@H]3C[C@@H]3OC)c2=O)nc2c(C(=O)N[C@@H]3CC[C@H]3OC)cnn12 [I-1186] : < 0.2 nM
CNc1cc(-n2cc(N3CCN(C)CC3)c3ncccc32)nc2c(C(=O)N[C@H]3C[C@H]3F)cnn12 [I-575] : 1 to 10 nM
CNc1cc(Nc2cccn(-c3ccon3)c2=O)nc2c(C(=O)NC3CCC3)cnn12 [I-158] : < 0.2 nM
CNc1cc(Nc2cccn([C@H]3CCC[C@H](OC)C3)c2=O)nc2c(C(=O)N[C@@H]3C[C@@H]3F)cnn12 [I-882] : < 0.2 nM
CNc1cc(Nc2cccn([C@@H]3CCN(C)C[C@H]3F)c2=O)nc2c(C(=O)NC3CC3)cnn12 [I-686] : 0.2 to 1 nM
CNC(=O)c1occc1Nc1cc(NC)n2ncc(C(=O)NC3CC3)c2n1 [I-887] : < 0.2 nM

Entry under review: CNc1cc(-c2nn(C(C)C)c3ncccc23)nc2c(C(=O)NC3CC3)cnn12 [I-440] . Reported Kd?
0.2 to 1 nM

Entry under review: CNc1cc(Nc2cccnc2OC2CC2)nc2c(C(=O)N[C@H]3[C@@H]4COC[C@@H]43)cnn12 [I-446] . Reported Kd?
0.2 to 1 nM

Entry under review: CNc1cc(Nc2cccn(-c3cnn(C)c3)c2=O)nc2c(C(=O)NC[C@H](C)CO)cnn12 [I-668] . Reported Kd?
< 0.2 nM
